target: RPS10 (Homo sapiens); construct: made in house; host or cells: E. coli BL-21; assay type: binding; conditions: 1Ai conc. 64 uM

{"molecule": "COc1ccc(C=C2CSc3ccc(Cl)cc3C2=O)cc1O [1Ai-5175]", "RPS10 fluorescence ratio to control": 0.2655}
{"molecule": "CCOC(=O)c1ccsc1NC(=O)CN1C(=O)NC(C)(c2cccc3ccccc23)C1=O (stereo not drawn) [1Ai-1861]", "RPS10 fluorescence ratio to control": 0.3768}
{"molecule": "CN1CCN(S(=O)(=O)c2ccc(N3Cc4cc5c(cc4C4(CCCC4)C3)OCCO5)nc2)CC1 [1Ai-3564]", "RPS10 fluorescence ratio to control": 1.142}

====

target: RPS10 (Homo sapiens); construct: made in house; host or cells: E. coli BL-21; format: binding; conditions: read-out: RPS10 IC50

{"substanceSmiles": "COc1cccc(Nc2nc(-c3ccc(NC(C)=O)cc3)c(C)s2)c1", "IC50 / µM": 7.7}
{"substanceSmiles": "Cc1ccc(C(=O)c2cc(O)c(O)c([N+](=O)[O-])c2)cc1", "IC50 / µM": 7.4}
{"substanceSmiles": "Cc1ccc(C)n1-c1cc([N+](=O)[O-])ccc1N1CCN(C(=O)c2ccccc2)CC1", "IC50 / µM": 9.9}

====

biological target: RPS10 (Homo sapiens, UniProt P46783); construct: made in house; host or cells: E. coli BL-21; type: binding; conditions: 1Ai conc. 1 uM
Decision: RPS10 fluorescence ratio to control >= 1 yields yes, all other cases yield no.

{"molecule": "O=C(COc1ccccc1[N+](=O)[O-])NCc1ccc(-c2ccc(Br)cc2)o1 [1Ai-4700]", "labelClass": "yes"}
{"molecule": "Cc1ccc(C(=O)c2cc(O)c(O)c([N+](=O)[O-])c2)cc1 [1Ai-5576]", "labelClass": "yes"}
{"molecule": "O=C(C=Cc1ccc(Cl)s1)Nc1cccc2ncccc12 [1Ai-4860]", "labelClass": "no"}
{"molecule": "Cc1cc(-n2c(C)cc(-c3csc(N)n3)c2C)no1 [1Ai-6464]", "labelClass": "no"}
{"molecule": "O=C(CSc1nc(-c2ccccc2)cn1-c1ccccc1)NC(=O)Nc1ccccc1 [1Ai-2383]", "labelClass": "no"}
{"molecule": "COc1ccc(C=C2CSc3ccc(Cl)cc3C2=O)cc1O [1Ai-5175]", "labelClass": "yes"}
{"molecule": "C=CCNC(=O)CN1CCN(Cc2nc3cc(-c4ccc(Cl)cc4)sc3c(=O)[nH]2)CC1 [1Ai-1524]", "labelClass": "no"}
{"molecule": "CCOc1cc(C(=O)Nc2ccc(Cl)c(-c3nc4ccccc4[nH]3)c2)cc(OCC)c1OCC [1Ai-5677]", "labelClass": "yes"}
{"molecule": "CN1CCN(S(=O)(=O)c2ccc(N3Cc4cc5c(cc4C4(CCCC4)C3)OCCO5)nc2)CC1 [1Ai-3564]", "labelClass": "no"}

====

Known RPS10 fluorescence ratio to control of a selection of compounds
target: RPS10 (Homo sapiens, UniProt P46783); construct: made in house; host or cells: E. coli BL-21; type: binding; conditions: 1Ai conc. 0.5 uM

{"compound": "COc1ccc2oc(C(=O)OC(C)C(=O)Nc3sccc3C(N)=O)c(C)c2c1 (stereo not drawn) [1Ai-3044]", "RPS10 fluorescence ratio to control": 1.015}
{"compound": "O=c1cc(CN2CCOCC2)occ1OCCCCCSc1ccnc2cc(C(F)(F)F)ccc12 [1Ai-5730]", "RPS10 fluorescence ratio to control": 0.9752}
{"compound": "O=C(COc1ccccc1[N+](=O)[O-])NCc1ccc(-c2ccc(Br)cc2)o1 [1Ai-4700]", "RPS10 fluorescence ratio to control": 0.9948}

====

molecular target: RPS10 (Homo sapiens); construct: made in house; host or cells: E. coli BL-21; type: binding; details: 1Ai conc. 0.25 uM

{"molecule": "O=C(COc1ccccc1[N+](=O)[O-])NCc1ccc(-c2ccc(Br)cc2)o1", "testedTarget": "RPS10 (Homo sapiens)", "RPS10 fluorescence ratio to control": 1}
{"molecule": "Cc1ccc(C)n1-c1cc([N+](=O)[O-])ccc1N1CCN(C(=O)c2ccccc2)CC1", "testedTarget": "RPS10 (Homo sapiens)", "RPS10 fluorescence ratio to control": 1}
{"molecule": "COc1ccc2oc(C(=O)OC(C)C(=O)Nc3sccc3C(N)=O)c(C)c2c1 (centres unmarked)", "testedTarget": "RPS10 (Homo sapiens)", "RPS10 fluorescence ratio to control": 1}
{"molecule": "Oc1cc(Cl)ccc1Oc1ccc(Cl)cc1Cl", "testedTarget": "RPS10 (Homo sapiens)", "RPS10 fluorescence ratio to control": 1.015}
{"molecule": "CCOC(=O)c1ccsc1NC(=O)CN1C(=O)NC(C)(c2cccc3ccccc23)C1=O (centres unmarked)", "testedTarget": "RPS10 (Homo sapiens)", "RPS10 fluorescence ratio to control": 1}
{"molecule": "O=c1cc(CN2CCOCC2)occ1OCCCCCSc1ccnc2cc(C(F)(F)F)ccc12", "testedTarget": "RPS10 (Homo sapiens)", "RPS10 fluorescence ratio to control": 1}
{"molecule": "CN1CCN(S(=O)(=O)c2ccc(N3Cc4cc5c(cc4C4(CCCC4)C3)OCCO5)nc2)CC1", "testedTarget": "RPS10 (Homo sapiens)", "RPS10 fluorescence ratio to control": 1}
{"molecule": "O=C(CSc1nc(-c2ccccc2)cn1-c1ccccc1)NC(=O)Nc1ccccc1", "testedTarget": "RPS10 (Homo sapiens)", "RPS10 fluorescence ratio to control": 1.003}

====

molecular target: RPS10 (Homo sapiens, UniProt P46783); construct: made in house; host or cells: E. coli BL-21; format: binding; details: 1Ai conc. 4 uM
Known RPS10 fluorescence ratio to control of a selection of compounds

{"compound": "COc1ccc2oc(C(=O)OC(C)C(=O)Nc3sccc3C(N)=O)c(C)c2c1 (stereo not shown)", "RPS10 fluorescence ratio to control": 1.108}
{"compound": "Cn1c(=O)c2ccccc2n2c(CNC(c3ccc4c(c3)CCC4)c3cccs3)nnc12 (stereo not shown)", "RPS10 fluorescence ratio to control": 1.556}
{"compound": "Oc1cc(Cl)ccc1Oc1ccc(Cl)cc1Cl", "RPS10 fluorescence ratio to control": 0.9327}
{"compound": "CCOC(=O)c1ccsc1NC(=O)CN1C(=O)NC(C)(c2cccc3ccccc23)C1=O (stereo not shown)", "RPS10 fluorescence ratio to control": 0.4957}
{"compound": "C=CCNC(=O)CN1CCN(Cc2nc3cc(-c4ccc(Cl)cc4)sc3c(=O)[nH]2)CC1", "RPS10 fluorescence ratio to control": 0.607}
{"compound": "O=c1cc(CN2CCOCC2)occ1OCCCCCSc1ccnc2cc(C(F)(F)F)ccc12", "RPS10 fluorescence ratio to control": 1.11}
{"compound": "CN1CCN(S(=O)(=O)c2ccc(N3Cc4cc5c(cc4C4(CCCC4)C3)OCCO5)nc2)CC1", "RPS10 fluorescence ratio to control": 0.8932}
{"compound": "Cc1ccc(C)n1-c1cc([N+](=O)[O-])ccc1N1CCN(C(=O)c2ccccc2)CC1", "RPS10 fluorescence ratio to control": 0.9804}
{"compound": "O=C(CSc1nc(-c2ccccc2)cn1-c1ccccc1)NC(=O)Nc1ccccc1", "RPS10 fluorescence ratio to control": 0.3805}
{"compound": "COc1ccc(C=C2CSc3ccc(Cl)cc3C2=O)cc1O", "RPS10 fluorescence ratio to control": 1.025}
{"compound": "CCOc1cc(C(=O)Nc2ccc(Cl)c(-c3nc4ccccc4[nH]3)c2)cc(OCC)c1OCC", "RPS10 fluorescence ratio to control": 1.154}
{"compound": "O=C(COc1ccccc1[N+](=O)[O-])NCc1ccc(-c2ccc(Br)cc2)o1", "RPS10 fluorescence ratio to control": 0.9943}
{"compound": "CN(C)CC1CCn2cc(c3ccccc32)C2=C(C(=O)NC2=O)c2cn(c3ccccc23)CCO1 (stereo not shown)", "RPS10 fluorescence ratio to control": 0.7525}

====

biological target: RPS10 (Homo sapiens, UniProt P46783); construct: made in house; host or cells: E. coli BL-21; type: binding; details: 1Ai conc. 16 uM
Known RPS10 fluorescence ratio to control of a selection of compounds

{"compound": "CN(C)CC1CCn2cc(c3ccccc32)C2=C(C(=O)NC2=O)c2cn(c3ccccc23)CCO1 (stereo not drawn)", "RPS10 fluorescence ratio to control": 0.6531}
{"compound": "CN1CCN(S(=O)(=O)c2ccc(N3Cc4cc5c(cc4C4(CCCC4)C3)OCCO5)nc2)CC1", "RPS10 fluorescence ratio to control": 0.942}
{"compound": "Cc1cc(-n2c(C)cc(-c3csc(N)n3)c2C)no1", "RPS10 fluorescence ratio to control": 0.6954}
